# residual activity per entry
# study target: EPHB2 (human)
# assay protocol: radiometric filter-binding kinase assay, Kinase HotSpot
# conditions: compound 0.5 µM; ATP 10 µM
Answer with a number only, understood to be in %.

{"structure smiles string": "NC(=O)c1cccc(-c2cc(Nc3ccc(OC(F)(F)F)cc3)ncn2)c1", "unit of measurement": "%", "residual activity": 102}
{"structure smiles string": "O=C1C(Cl)=C(N2C(=O)CCC2=O)C(=O)c2ccccc21", "unit of measurement": "%", "residual activity": 98.7}
{"structure smiles string": "N#Cc1c[nH]c2c[nH]/c(=N\\Cc3cccnc3)cc2/c1=N\\c1ccc(F)c(Cl)c1", "unit of measurement": "%", "residual activity": 97.4}
{"structure smiles string": "O=C1NC(=O)c2c1c1c3ccccc3[nH]c1n1cncc21", "unit of measurement": "%", "residual activity": 86.1}

Give reported residual activity value for COc1ccc(S(=O)(=O)N(CCO)c2ccccc2CN(C)C/C=C/c2ccc(Cl)cc2)cc1
97.7

Give reported residual activity value for COc1ccc(Cl)cc1NC(=O)Nc1cc(C)nc2ccccc12
93.2

###

# study target: TNK2 (human)
# assay protocol: radiometric filter-binding kinase assay, Kinase HotSpot
# conditions: compound 0.5 µM; ATP 10 µM
// assign class 1 if residual activity falls strictly below 90%, else class 0 (ties count as class 0)

{"structure smiles string": "COc1ccc(C(=O)Nc2sc3c(c2C(N)=O)CCCC3)cc1OC", "assigned label": "class 0"}

Strictly below 90% in residual activity? COc1cc2ncnc(Nc3ccc(OCc4ccccc4)cc3)c2cc1OC
class 1

Strictly below 90% in residual activity? CN(C)CCCn1cc(C2=C(c3c[nH]c4ccccc34)C(=O)NC2=O)c2ccccc21
class 0

Strictly below 90% in residual activity? O=C1c2ccccc2-c2nc3nnnn3nc21
class 1

Strictly below 90% in residual activity? CS(=O)(=O)CCNCc1ccc(-c2ccc3ncnc(Nc4ccc(OCc5cccc(F)c5)c(Cl)c4)c3c2)o1
class 0

Strictly below 90% in residual activity? Cc1cccc(-c2nc(C(C)(C)C)[nH]c2-c2ccc3c(c2)OCO3)n1
class 0

Strictly below 90% in residual activity? NC(=O)c1cccc(-c2cc(Nc3ccc(OC(F)(F)F)cc3)ncn2)c1
class 0

Strictly below 90% in residual activity? CN(C)S(=O)(=O)c1ccc2c(c1)/C(=C/c1cc3c([nH]1)CCCC3)C(=O)N2
class 1

###

# study target: MAPKAPK5 (human)
# assay protocol: radiometric filter-binding kinase assay, Kinase HotSpot
# conditions: compound 0.5 µM; ATP 10 µM
// assign Criterion met if residual activity falls strictly below 90%, else Criterion not met (ties count as Criterion not met)

Below, 3 compounds whose answers are already recorded.
{"structure smiles string": "Cc1nc(-c2ccccc2)c(-c2ccncc2)o1", "assigned label": "Criterion not met"}
{"structure smiles string": "c1ccc2c(-c3ccncc3)c[nH]c2c1", "assigned label": "Criterion not met"}
{"structure smiles string": "NC(=O)c1cccc(-c2cc(Nc3ccc(OC(F)(F)F)cc3)ncn2)c1", "assigned label": "Criterion not met"}

Strictly below 90% in residual activity? COc1cc2ncnc(Nc3ccc(OCc4ccccc4)cc3)c2cc1OC
Criterion not met

###

# study target: PAK3 (human)
# assay protocol: radiometric filter-binding kinase assay, Kinase HotSpot
# conditions: compound 0.5 µM; ATP 10 µM
measured attribute: residual activity (%)
Answer with a number only, understood to be in %.

Worked examples follow.
{"structure smiles string": "COc1ccc(S(=O)(=O)N(CCO)c2ccccc2CN(C)C/C=C/c2ccc(Cl)cc2)cc1", "residual activity, %": 102}
{"structure smiles string": "CN(C)S(=O)(=O)c1ccc2c(c1)/C(=C/c1cc3c([nH]1)CCCC3)C(=O)N2", "residual activity, %": 97.6}
{"structure smiles string": "Cc1nc(-c2ccccc2)c(-c2ccncc2)o1", "residual activity, %": 100}
{"structure smiles string": "N#C/C(=C\\c1ccc(O)c(O)c1)C(=O)NCc1ccccc1", "residual activity, %": 101}
{"structure smiles string": "CC(C)(C)c1cc(C=C(C#N)C#N)cc(Br)c1O", "residual activity, %": 96.9}

We next turn to a different compound, shown below.
Give reported residual activity value for COc1ccc(Cl)cc1NC(=O)Nc1cc(C)nc2ccccc12
98.9

###

# residual activity per entry
# study target: PIM2 (human) (UniProt Q9P1W9)
# Sequence (Q9P1W9 whole entry, looked up): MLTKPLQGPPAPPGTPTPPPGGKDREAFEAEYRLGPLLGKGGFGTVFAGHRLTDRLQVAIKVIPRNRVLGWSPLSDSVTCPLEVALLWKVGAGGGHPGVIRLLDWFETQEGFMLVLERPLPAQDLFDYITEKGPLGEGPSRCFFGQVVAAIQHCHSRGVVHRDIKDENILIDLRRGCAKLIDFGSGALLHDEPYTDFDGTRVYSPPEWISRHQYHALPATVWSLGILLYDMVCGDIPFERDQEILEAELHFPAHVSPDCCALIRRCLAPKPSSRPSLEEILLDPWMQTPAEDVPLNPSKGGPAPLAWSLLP
# assay protocol: radiometric filter-binding kinase assay, Kinase HotSpot
# conditions: compound 0.5 µM; ATP 10 µM
Answer with a number only, understood to be in %.

Worked examples follow.
{"structure smiles string": "COc1cc(Nc2c(C#N)cnc3cc(OCCCN4CCN(C)CC4)c(OC)cc23)c(Cl)cc1Cl", "study target": "PIM2 (human) (UniProt Q9P1W9)", "reported result": 111}
{"structure smiles string": "O=C1C(Cl)=C(N2C(=O)CCC2=O)C(=O)c2ccccc21", "study target": "PIM2 (human) (UniProt Q9P1W9)", "reported result": 123}
{"structure smiles string": "CN(C)S(=O)(=O)c1ccc2c(c1)/C(=C/c1cc3c([nH]1)CCCC3)C(=O)N2", "study target": "PIM2 (human) (UniProt Q9P1W9)", "reported result": 108}
{"structure smiles string": "N#Cc1c[nH]c2c[nH]/c(=N\\Cc3cccnc3)cc2/c1=N\\c1ccc(F)c(Cl)c1", "study target": "PIM2 (human) (UniProt Q9P1W9)", "reported result": 101}
{"structure smiles string": "Cc1cncc2cccc(S(=O)(=O)N3CCCN(C(=O)CN)C[C@H]3C)c12", "study target": "PIM2 (human) (UniProt Q9P1W9)", "reported result": 104}
{"structure smiles string": "Cc1nc(-c2ccccc2)c(-c2ccncc2)o1", "study target": "PIM2 (human) (UniProt Q9P1W9)", "reported result": 110}
{"structure smiles string": "COc1cc2ncnc(Nc3ccc(OCc4ccccc4)cc3)c2cc1OC", "study target": "PIM2 (human) (UniProt Q9P1W9)", "reported result": 97.6}
{"structure smiles string": "COc1ccc(S(=O)(=O)N(CCO)c2ccccc2CN(C)C/C=C/c2ccc(Cl)cc2)cc1", "study target": "PIM2 (human) (UniProt Q9P1W9)", "reported result": 99.7}
{"structure smiles string": "Ic1cccc(CSc2nnc(-c3ccncc3)o2)c1", "study target": "PIM2 (human) (UniProt Q9P1W9)", "reported result": 102}
{"structure smiles string": "COc1ccc2c(c1)/C(=C/c1cnc[nH]1)C(O)=N2", "study target": "PIM2 (human) (UniProt Q9P1W9)", "reported result": 97.2}

We next turn to a different compound, shown below.
Please look at Cn1c2ccccc2c2c3c(c4c5ccccc5n(CCC#N)c4c21)CNC3=O and tell me its recorded residual activity on PIM2 (human) (UniProt Q9P1W9).
101

###

# study target: WNK2 (human)
# assay protocol: radiometric filter-binding kinase assay, Kinase HotSpot
# conditions: compound 0.5 µM; ATP 10 µM
# residual activity per entry
Answer with a number only, understood to be in %.

{"structure smiles string": "Cc1cncc2cccc(S(=O)(=O)N3CCCN(C(=O)CN)C[C@H]3C)c12", "residual activity (%)": 98}

Give reported residual activity value for Cc1nc(-c2ccccc2)c(-c2ccncc2)o1
101

Give reported residual activity value for O=C1Nc2ccc(Br)cc2/C1=C\c1cc2c([nH]1)CCCC2
101

Give reported residual activity value for O=C1C(Cl)=C(N2C(=O)CCC2=O)C(=O)c2ccccc21
108

Give reported residual activity value for Fc1ccc(-c2nc3n(c2-c2ccncc2)CCS3)cc1
104

Give reported residual activity value for Ic1cccc(CSc2nnc(-c3ccncc3)o2)c1
99.5

###

# study target: EPHB4 (human) (UniProt P54760)
# Sequence (P54760 whole entry, looked up): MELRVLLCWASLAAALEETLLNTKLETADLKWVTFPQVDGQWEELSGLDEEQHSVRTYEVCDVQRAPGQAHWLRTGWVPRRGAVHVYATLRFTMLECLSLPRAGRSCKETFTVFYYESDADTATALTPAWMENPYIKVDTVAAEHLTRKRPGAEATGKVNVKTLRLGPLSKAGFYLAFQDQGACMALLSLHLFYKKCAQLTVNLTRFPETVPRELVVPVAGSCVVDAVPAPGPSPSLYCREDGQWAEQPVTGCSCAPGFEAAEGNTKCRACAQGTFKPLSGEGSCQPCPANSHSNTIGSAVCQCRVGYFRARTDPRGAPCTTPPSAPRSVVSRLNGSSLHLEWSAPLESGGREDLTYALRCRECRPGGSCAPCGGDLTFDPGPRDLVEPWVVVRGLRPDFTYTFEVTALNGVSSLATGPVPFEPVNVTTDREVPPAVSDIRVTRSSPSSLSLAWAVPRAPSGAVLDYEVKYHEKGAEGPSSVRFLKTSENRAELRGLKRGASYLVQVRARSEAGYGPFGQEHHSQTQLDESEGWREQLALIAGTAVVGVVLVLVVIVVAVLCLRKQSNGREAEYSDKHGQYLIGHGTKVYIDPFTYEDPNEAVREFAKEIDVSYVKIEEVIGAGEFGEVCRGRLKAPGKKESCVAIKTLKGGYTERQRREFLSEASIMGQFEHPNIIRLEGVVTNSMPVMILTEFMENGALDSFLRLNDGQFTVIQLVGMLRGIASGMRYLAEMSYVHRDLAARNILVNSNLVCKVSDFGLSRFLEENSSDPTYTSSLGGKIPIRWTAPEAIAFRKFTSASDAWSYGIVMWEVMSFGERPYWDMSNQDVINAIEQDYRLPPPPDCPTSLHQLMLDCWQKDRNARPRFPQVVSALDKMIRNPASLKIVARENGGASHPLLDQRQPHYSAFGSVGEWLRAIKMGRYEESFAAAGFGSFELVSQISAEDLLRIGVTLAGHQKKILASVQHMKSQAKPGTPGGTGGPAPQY
# assay protocol: radiometric filter-binding kinase assay, Kinase HotSpot
# conditions: compound 0.5 µM; ATP 10 µM
// assign label 1 if residual activity falls strictly below 90%, else label 0 (ties count as label 0)

{"structure smiles string": "COc1ccc2c(c1)c(C1=C(c3c[nH]c4ccccc34)C(=O)NC1=O)cn2CCCN(C)C", "assigned label": "label 0"}
{"structure smiles string": "CN(C)c1ccc(/C=C2\\C(=O)Nc3ccccc32)cc1", "assigned label": "label 0"}
{"structure smiles string": "CS(=O)(=O)CCNCc1ccc(-c2ccc3ncnc(Nc4ccc(OCc5cccc(F)c5)c(Cl)c4)c3c2)o1", "assigned label": "label 0"}

Strictly below 90% in residual activity? COc1cc2ncnc(Nc3ccc(Oc4ccccc4)cc3)c2cc1OC
label 1

###

# residual activity per entry
# study target: SRPK3 (human)
# assay protocol: radiometric filter-binding kinase assay, Kinase HotSpot
# conditions: compound 0.5 µM; ATP 10 µM
Answer with a number only, understood to be in %.

Worked examples follow.
{"structure smiles string": "NC(=O)c1cccc(-c2cc(Nc3ccc(OC(F)(F)F)cc3)ncn2)c1", "residual activity / %": 94.3}
{"structure smiles string": "COc1cc(Nc2c(C#N)cnc3cc(OCCCN4CCN(C)CC4)c(OC)cc23)c(Cl)cc1Cl", "residual activity / %": 106}
{"structure smiles string": "COc1cc2ncnc(Nc3ccc(Oc4ccccc4)cc3)c2cc1OC", "residual activity / %": 94.8}
{"structure smiles string": "Fc1ccc(-c2nc3n(c2-c2ccncc2)CCS3)cc1", "residual activity / %": 98.5}

Give reported residual activity value for CN(C)c1ccc(/C=C2\C(=O)Nc3ccccc32)cc1
98.7

Give reported residual activity value for CS(=O)(=O)CCNCc1ccc(-c2ccc3ncnc(Nc4ccc(OCc5cccc(F)c5)c(Cl)c4)c3c2)o1
104

Give reported residual activity value for Cn1c2ccccc2c2c3c(c4c5ccccc5n(CCC#N)c4c21)CNC3=O
92.8

Give reported residual activity value for O=C1C(Cl)=C(N2C(=O)CCC2=O)C(=O)c2ccccc21
93.6

Give reported residual activity value for COc1ccc(Cl)cc1NC(=O)Nc1cc(C)nc2ccccc12
104

Give reported residual activity value for Cc1cncc2cccc(S(=O)(=O)N3CCCN(C(=O)CN)C[C@H]3C)c12
99.9
